meta.source: patent US7572794B2

- test system: Cytochrome P450 isoenzyme 2C19 (Homo sapiens, UniProt P33261)
- Sequence (P33261 whole entry): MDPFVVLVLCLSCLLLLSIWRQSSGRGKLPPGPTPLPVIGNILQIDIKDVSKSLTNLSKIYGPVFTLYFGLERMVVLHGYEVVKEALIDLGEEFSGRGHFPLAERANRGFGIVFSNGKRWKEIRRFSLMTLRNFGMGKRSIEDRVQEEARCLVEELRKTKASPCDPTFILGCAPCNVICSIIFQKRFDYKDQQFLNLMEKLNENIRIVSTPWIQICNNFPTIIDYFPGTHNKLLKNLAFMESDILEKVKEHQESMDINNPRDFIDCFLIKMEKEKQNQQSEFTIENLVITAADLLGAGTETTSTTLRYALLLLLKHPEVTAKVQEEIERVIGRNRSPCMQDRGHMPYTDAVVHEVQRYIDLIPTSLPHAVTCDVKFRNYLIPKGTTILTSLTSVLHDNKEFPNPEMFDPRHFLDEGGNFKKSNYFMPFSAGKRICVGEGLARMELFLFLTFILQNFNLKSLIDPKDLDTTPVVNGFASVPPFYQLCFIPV

{"columns": ["smiles", "IC50, µM"],
 "data": [
  ["Cn1cc2ccc(NC(=O)c3ccccc3NCc3ccnc(NC(=O)N4CCC(O)(C(F)(F)F)CC4)c3)cc2n1", 12]
]}

---

- test system: KDR-Kinase (VEGFR-2) (Homo sapiens, UniProt P35968)
- Construct: GST-kinase domain fusion construct of the KDR kinase; GST
- Sequence (P35968 834-1162 limits assumed, species assumed): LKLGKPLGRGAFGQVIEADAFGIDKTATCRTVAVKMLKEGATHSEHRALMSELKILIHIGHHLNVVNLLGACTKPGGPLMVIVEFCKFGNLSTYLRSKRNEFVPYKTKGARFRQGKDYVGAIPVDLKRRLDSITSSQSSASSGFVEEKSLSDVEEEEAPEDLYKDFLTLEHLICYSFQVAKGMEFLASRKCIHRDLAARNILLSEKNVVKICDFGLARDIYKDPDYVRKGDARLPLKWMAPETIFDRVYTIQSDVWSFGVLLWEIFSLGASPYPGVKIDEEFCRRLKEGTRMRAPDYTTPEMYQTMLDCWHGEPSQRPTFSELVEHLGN
- assay text: KDR Kinase Inhibition
- protocol conditions: GST-kinase domain fusion construct of KDR; poly(Glu4Tyr) substrate, 32P-ATP, 10 min

{"columns": ["molecule", "test system", "IC50"],
 "data": [
  ["Cn1cc2ccc(NC(=O)c3ccccc3NCc3ccnc(NC(=O)N4CCC(O)(C(F)(F)F)CC4)c3)cc2n1 [Example 1.2]", "KDR-Kinase (VEGFR-2) (Homo sapiens, UniProt P35968)", "17 nM"],
  ["Cn1cc2ccc(NC(=O)c3ccccc3NCc3ccnc(NC(=O)N4CCC(O)CC4)c3)cc2n1 [Example 1.1]", "KDR-Kinase (VEGFR-2) (Homo sapiens, UniProt P35968)", "20 nM"],
  ["CN1CCN(C(=O)Nc2cc(CNc3ccccc3C(=O)Nc3ccc4cn(C)nc4c3)ccn2)CC1 [Example 3.0]", "KDR-Kinase (VEGFR-2) (Homo sapiens, UniProt P35968)", "29 nM"],
  ["Cn1cc2ccc(NC(=O)c3ccccc3NCc3ccnc(NC(=O)N4CCOCC4)c3)cc2n1 [Example 3.6]", "KDR-Kinase (VEGFR-2) (Homo sapiens, UniProt P35968)", "29 nM"]
]}
